Target: T1, human tissue factor pathway inhibitor (TFPI) (human, UniProt P10646 29-304, limits assumed)
T1 construct: bought; also called hTFPI; human TFPI
T1 sequence (looked up): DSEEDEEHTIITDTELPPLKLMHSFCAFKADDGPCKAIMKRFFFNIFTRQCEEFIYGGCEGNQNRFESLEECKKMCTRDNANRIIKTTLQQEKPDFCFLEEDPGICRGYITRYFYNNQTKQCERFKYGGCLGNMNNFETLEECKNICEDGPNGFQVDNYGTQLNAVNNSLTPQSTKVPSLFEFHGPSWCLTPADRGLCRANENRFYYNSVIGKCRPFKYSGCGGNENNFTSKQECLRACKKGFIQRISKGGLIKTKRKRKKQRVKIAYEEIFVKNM
Assay: competitive ELISA
The following binders are listed with their measured variant/wild-type values.
Kindly format the answer as number then unit.

Below, each entry is followed by its recorded variant/wild-type result.
4B7 HC_S57R (Fab, V domains shown) VH: QVQLQQSGPGLVKPSQTLSLTCAISGDSVSSNSAAWSWIRQSPGRGLEWLGIIYKRRKWYNDYAVSVKSRITINPDTSKNQFSLQLNSVTPEDTAVYYCARWHSDKHWGFDYWGQGTLVTVSS VL: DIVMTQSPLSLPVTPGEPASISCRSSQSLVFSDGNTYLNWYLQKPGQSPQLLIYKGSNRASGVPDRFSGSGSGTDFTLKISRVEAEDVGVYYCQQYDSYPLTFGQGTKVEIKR ... 2 ratio
4B7 LC_F31I (Fab, V domains shown) VH: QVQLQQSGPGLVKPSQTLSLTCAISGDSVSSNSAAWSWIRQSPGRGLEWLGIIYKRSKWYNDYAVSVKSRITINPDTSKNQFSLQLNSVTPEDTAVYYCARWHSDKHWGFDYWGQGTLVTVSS VL: DIVMTQSPLSLPVTPGEPASISCRSSQSLVISDGNTYLNWYLQKPGQSPQLLIYKGSNRASGVPDRFSGSGSGTDFTLKISRVEAEDVGVYYCQQYDSYPLTFGQGTKVEIKR ... 9.1 ratio

## Input Report variant/wild-type for 4B7 LC_S61C (Fab, V domains shown) VH: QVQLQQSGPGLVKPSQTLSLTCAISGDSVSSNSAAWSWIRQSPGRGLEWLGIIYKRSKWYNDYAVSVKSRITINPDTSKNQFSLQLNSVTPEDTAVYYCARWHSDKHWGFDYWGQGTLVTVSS VL: DIVMTQSPLSLPVTPGEPASISCRSSQSLVFSDGNTYLNWYLQKPGQSPQLLIYKGSNRACGVPDRFSGSGSGTDFTLKISRVEAEDVGVYYCQQYDSYPLTFGQGTKVEIKR please.
## Output 3.1 ratio
